molecular target: PTPN2 (B16F10.4 cells) (Mus musculus, UniProt Q06180); construct: HiBiT; host or cells: B16F10.4; assay: HiBiT Degradation B16F10.4 PTPN2; type: cell-based; conditions: 24.0 hours
Reported DC50 values for a set of compounds

Here is how some compounds turned out for DC50.
[[record]]
compound = "Cn1c(=O)n(C2CCC(=O)NC2=O)c2ccc(C3CCN(C(=O)Nc4cccc(CS(=O)(=O)N5CCC(Nc6cccc(-c7sc(C(=O)O)c(OCC(=O)O)c7Cl)c6)CC5(C)C)c4F)CC3)cc21 (centres unmarked) [Example 115]"
result = "0.2 to 1 µM"

[[record]]
compound = "Cn1c(=O)n(C2CCC(=O)NC2=O)c2ccc(N3CCC(NCCNc4cccc(CS(=O)(=O)N5CC[C@H](Nc6cccc(-c7sc(C(=O)O)c(OCC(=O)O)c7Cl)c6)CC5(C)C)c4)CC3)cc21 (some centres unmarked) [Example 197]"
result = "0.05 to 0.2 µM"

[[record]]
compound = "CC1(C)C[C@H](Nc2cccc(-c3sc(C(=O)O)c(OCC(=O)O)c3Cl)c2)CCN1S(=O)(=O)Cc1ccc(F)c(NC(=O)N2CCC(c3ccc4c5c(cccc35)C(=O)N4C3CCC(=O)NC3=O)CC2)c1 (some centres unmarked) [Example 127]"
result = "< 0.05 µM"

[[record]]
compound = "Cn1c(=O)n(C2CCC(=O)NC2=O)c2ccc(N3CC4(CCN(C(=O)Nc5cccc(CS(=O)(=O)N6CCC(Nc7cccc(-c8sc(C(=O)O)c(OCC(=O)O)c8Cl)c7)CC6)c5)CC4)C3)cc21 (centres unmarked) [Example 113]"
result = "0.05 to 0.2 µM"


As a next step, examine the compound that follows.
State recorded DC50 with PTPN2 (B16F10.4 cells) (Mus musculus, UniProt Q06180), entry Cn1c(=O)n(C2CCC(=O)NC2=O)c2ccc(N3CCCC4(CN(C(=O)Nc5cccc(CS(=O)(=O)N6CC[C@H](Nc7cccc(-c8sc(C(=O)O)c(OCC(=O)O)c8Cl)c7)CC6(C)C)c5)C4)C3)cc21 (some centres unmarked) [Example 141] , no comment.
0.2 to 1 µM

###

target: PTPN2 (B16F10.4 cells) (Mus musculus, UniProt Q06180); construct: HiBiT; host or cells: B16F10.4; experiment: HiBiT Degradation B16F10.4 PTPN2; assay type: cell-based; conditions: 24.0 hours
parameter: DC50

Below are worked cases with known answers.
[[record]]
compound = "CC1(C)C[C@@H](Nc2cccc(-c3sc(C(=O)O)c(OCC(=O)O)c3Cl)c2)CCN1S(=O)(=O)Cc1cccc(NC(=O)C2CCN(C(=O)CCc3cccc4c3CN(C3CCC(=O)NC3=O)C4=O)CC2)c1 (stereo partly drawn) [Example 61]"
parameter = "DC50"
result = "0.2 to 1 µM"

[[record]]
compound = "Cn1c(=O)n(C2CCC(=O)NC2=O)c2ccc(-c3ccc(NC(=O)Nc4cccc(CS(=O)(=O)N5CC[C@H](Nc6cccc(-c7sc(C(=O)O)c(OCC(=O)O)c7Cl)c6)CC5(C)C)c4)cc3)cc21 (stereo partly drawn) [Example 145]"
parameter = "DC50"
result = "0.05 to 0.2 µM"


Fill in DC50 for record CC1(C)C[C@@H](Nc2cccc(-c3sc(C(=O)O)c(OCC(=O)O)c3Cl)c2)CCN1S(=O)(=O)Cc1cccc(NC(=O)N2CCC(c3ccc4c(c3)n(C3CC3)c(=O)n4C3CCC(=O)NC3=O)CC2)c1 (stereo partly drawn) [Example 154]
0.05 to 0.2 µM

###

Target: PTPN2 (B16F10.4 cells) (Mus musculus, UniProt Q06180)
Construct: HiBiT; host or cells: B16F10.4
Sequence (Q06180 1-406): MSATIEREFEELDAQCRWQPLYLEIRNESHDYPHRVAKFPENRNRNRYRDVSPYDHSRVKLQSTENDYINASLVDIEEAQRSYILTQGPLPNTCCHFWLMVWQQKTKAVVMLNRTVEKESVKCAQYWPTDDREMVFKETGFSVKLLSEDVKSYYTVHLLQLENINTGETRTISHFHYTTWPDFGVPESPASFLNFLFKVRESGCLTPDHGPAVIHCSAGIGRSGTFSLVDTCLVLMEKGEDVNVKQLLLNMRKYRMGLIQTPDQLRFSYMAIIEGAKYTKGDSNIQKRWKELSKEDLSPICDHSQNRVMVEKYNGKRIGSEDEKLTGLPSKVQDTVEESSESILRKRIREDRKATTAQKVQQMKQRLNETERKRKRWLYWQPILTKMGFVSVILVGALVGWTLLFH
Assay: HiBiT Degradation B16F10.4 PTPN2
Assay type: cell-based
Conditions: 24.0 hours
parameter: DC50

[[record]]
molecule = "CC1(C)C[C@@H](Nc2cccc(-c3sc(C(=O)O)c(OCC(=O)O)c3Cl)c2)CCN1S(=O)(=O)Cc1cccc(NC(=O)CN2CCC(c3ccc4c(c3)oc(=O)n4C3CCC(=O)NC3=O)CC2)c1 (stereo partly shown)"
result = "200 to 1000 nM"

[[record]]
molecule = "CC1(C)C[C@H](Nc2cccc(-c3sc(C(=O)O)c(OCC(=O)O)c3Cl)c2F)CCN1S(=O)(=O)Cc1ccc(F)c(NC(=O)C2CN(C(=O)CNc3cccc4c3CN(C3CCC(=O)NC3=O)C4=O)C2)c1 (stereo partly shown)"
result = "≥ 1000 nM"

[[record]]
molecule = "Cn1c(=O)n([C@@H]2CCC(=O)NC2=O)c2ccc([C@@H]3CCN(C(=O)Nc4cccc(CS(=O)(=O)N5CC[C@H](Nc6cccc(-c7sc(C(=O)O)c(OCC(=O)O)c7Cl)c6)CC5(C)C)c4)CC3(F)F)cc21 (single isomer, unassigned) [Example 169b]"
result = "50 to 200 nM"


Now examine the next entry.
Please give measured DC50 of the following entry: CC1(C)C[C@@H](Nc2cccc(-c3sc(C(=O)O)c(OCC(=O)O)c3Cl)c2)CCN1S(=O)(=O)Cc1cccc(NC(=O)OC2CN(C(=O)CNc3cccc4c3CN(C3CCC(=O)NC3=O)C4=O)C2)c1 (stereo partly shown)
200 to 1000 nM

###

target: PTPN2 (B16F10.4 cells) (Mus musculus, UniProt Q06180); construct: HiBiT; host or cells: B16F10.4; experiment: HiBiT Degradation B16F10.4 PTPN2; assay type: cell-based; conditions: 24.0 hours
parameter: DC50

[[record]]
molecule = "CC1(C)C[C@@H](Nc2cccc(-c3sc(C(=O)O)c(OCC(=O)O)c3Cl)c2)CCN1S(=O)(=O)Cc1cccc(NC(=O)OC2CCN(C(=O)CNc3cccc4c3CN(C3CCC(=O)NC3=O)C4=O)CC2)c1 (stereo partly drawn) [Example 85]"
parameter = "DC50"
result = "0.2 to 1 µM"

[[record]]
molecule = "Cn1nc(C2CCC(=O)NC2=O)c2ccc(C3CCN(C(=O)Nc4cccc(CS(=O)(=O)N5CC[C@H](Nc6cccc(-c7sc(C(=O)O)c(OCC(=O)O)c7Cl)c6)CC5(C)C)c4)CC3)cc21 (stereo partly drawn) [Example 143]"
parameter = "DC50"
result = "0.05 to 0.2 µM"


We now examine a further molecule.
Given O=C(O)COc1c(C(=O)O)sc(-c2cccc(NC3CCN(S(=O)(=O)Cc4cccc(NC(=O)CCn5cc(CNc6cccc7c6CN(C6CCC(=O)NC6=O)C7=O)cn5)c4)CC3)c2)c1Cl (stereo not drawn) [Example 38] , respond with its DC50.
≥ 1 µM

###

Target: PTPN2 (HiBIT-PTPN2 in 293T.109 cells) (Homo sapiens)
Construct: expressed in transfected cells; host or cells: 293T.109 (293T WT from ATCC)
Sequence (P17706 whole entry, species assumed): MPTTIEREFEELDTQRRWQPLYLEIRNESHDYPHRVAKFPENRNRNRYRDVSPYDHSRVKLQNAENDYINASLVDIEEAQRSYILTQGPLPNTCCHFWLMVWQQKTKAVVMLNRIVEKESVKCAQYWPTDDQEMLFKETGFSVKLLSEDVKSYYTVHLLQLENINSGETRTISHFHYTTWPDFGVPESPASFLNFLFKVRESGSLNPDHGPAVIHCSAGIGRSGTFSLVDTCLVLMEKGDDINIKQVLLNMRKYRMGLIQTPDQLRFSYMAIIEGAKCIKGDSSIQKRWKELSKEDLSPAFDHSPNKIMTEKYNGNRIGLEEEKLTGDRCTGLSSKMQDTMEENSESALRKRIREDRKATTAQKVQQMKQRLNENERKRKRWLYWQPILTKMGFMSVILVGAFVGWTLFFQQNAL
Assay: HiBiT Degradation 293T.109 PTPN2 (Nano-Glo HiBiT Lytic Assay)
Format: cell-based
Settings: 24.0 hours
Procedure: Dulbecco's modified Eagle medium (DMEM) without phenol red and fetal bovine serum (FBS) were purchased from Gibco (Grand Island, NY, USA). Nano-Glo® HiBIT Lytic Assay System was purchased from Promega (Madison, WI, USA). […] PTPN2 degradation was determined based on quantification of luminescent signal using Nano-Glo® HiBIT Lytic Assay kit. […] Luminescence was acquired on EnVision™ Multilabel Reader (PerkinElmer, Santa Clara, CA, USA).
parameter: DC50

[[record]]
compound = "Cn1c(=O)n(C2CCC(=O)NC2=O)c2cccc(OC3CCN(C(=O)Nc4cccc(CS(=O)(=O)N5CC[C@H](Nc6cccc(-c7sc(C(=O)O)c(OCC(=O)O)c7Cl)c6)CC5(C)C)c4)CC3)c21 (some centres unmarked)"
parameter = "DC50"
result = "200 to 1000 nM"

[[record]]
compound = "Cn1c(=O)n(C2CCC(=O)NC2=O)c2ccc(Cc3ccc(CC(=O)Nc4cccc(CS(=O)(=O)N5CC[C@H](Nc6cccc(-c7sc(C(=O)O)c(OCC(=O)O)c7Cl)c6)CC5(C)C)c4)cc3)cc21 (some centres unmarked)"
parameter = "DC50"
result = "< 50 nM"

[[record]]
compound = "Cn1c(=O)n(C2CCC(=O)NC2=O)c2ccc(C3CCN(C(=O)Nc4cccc(CS(=O)(=O)N5CC[C@H](Nc6cccc(-c7sc(C(=O)O)c(OCC(=O)O)c7Cl)c6)CC5(C)C)c4)CC3)cc21 (some centres unmarked)"
parameter = "DC50"
result = "50 to 200 nM"

[[record]]
compound = "CC1(C)C[C@@H](Nc2cccc(-c3sc(C(=O)O)c(OCC(=O)O)c3Cl)c2)CCN1S(=O)(=O)Cc1cccc(NC(=O)N2CCC(Oc3cccc4c3CN(C3CCC(=O)NC3=O)C4=O)CC2)c1 (some centres unmarked)"
parameter = "DC50"
result = "50 to 200 nM"


Hello, please tell me recorded DC50 for this one: CC1(C)C[C@@H](Nc2cccc(-c3sc(C(=O)O)c(OCC(=O)O)c3Cl)c2)CCN1S(=O)(=O)Cc1cccc(NC(=O)N2CCC(c3ccc4c5c(cccc35)N(C3CCC(=O)NC3=O)C4=O)CC2)c1 (some centres unmarked)
50 to 200 nM
